Sourced from patent US12522614B2

So I've got a bunch of molecules here, and I need their pIC50 values.
target: PI3K (p110a(E545K)/p85a) (Homo sapiens, UniProt P42336, E545K); test: Lipid kinase inhibitory activity, ADP-Glo; conditions: α E545K
Sequence (P42336 whole entry E545K): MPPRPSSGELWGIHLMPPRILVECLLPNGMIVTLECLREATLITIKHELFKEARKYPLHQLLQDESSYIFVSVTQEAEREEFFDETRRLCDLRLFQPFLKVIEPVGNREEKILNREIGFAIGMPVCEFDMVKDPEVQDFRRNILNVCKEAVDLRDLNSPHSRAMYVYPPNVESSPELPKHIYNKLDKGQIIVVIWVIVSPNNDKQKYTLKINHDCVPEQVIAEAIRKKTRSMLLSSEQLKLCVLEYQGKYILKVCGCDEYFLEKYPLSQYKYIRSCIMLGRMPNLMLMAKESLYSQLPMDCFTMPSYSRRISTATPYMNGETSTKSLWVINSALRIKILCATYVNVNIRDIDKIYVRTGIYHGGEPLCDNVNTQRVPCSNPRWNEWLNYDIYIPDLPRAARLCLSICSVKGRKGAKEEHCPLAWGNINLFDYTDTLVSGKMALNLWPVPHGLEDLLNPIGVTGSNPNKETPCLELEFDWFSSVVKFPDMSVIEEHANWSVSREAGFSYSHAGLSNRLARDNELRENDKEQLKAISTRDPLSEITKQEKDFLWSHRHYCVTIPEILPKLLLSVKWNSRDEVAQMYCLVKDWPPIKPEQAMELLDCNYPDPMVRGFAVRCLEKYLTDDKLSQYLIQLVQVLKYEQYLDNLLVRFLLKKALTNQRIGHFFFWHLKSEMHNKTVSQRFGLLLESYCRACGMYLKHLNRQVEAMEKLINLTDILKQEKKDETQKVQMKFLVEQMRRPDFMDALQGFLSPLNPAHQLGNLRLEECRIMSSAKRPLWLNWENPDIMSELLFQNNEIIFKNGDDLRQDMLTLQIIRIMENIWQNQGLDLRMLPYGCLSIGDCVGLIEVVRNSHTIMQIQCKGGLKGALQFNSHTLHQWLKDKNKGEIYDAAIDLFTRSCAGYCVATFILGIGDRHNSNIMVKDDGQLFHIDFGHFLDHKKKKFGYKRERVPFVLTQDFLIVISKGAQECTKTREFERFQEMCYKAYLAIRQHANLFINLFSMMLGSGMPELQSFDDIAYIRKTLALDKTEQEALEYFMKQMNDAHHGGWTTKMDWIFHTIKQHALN
Sequence (P27986 whole entry partner): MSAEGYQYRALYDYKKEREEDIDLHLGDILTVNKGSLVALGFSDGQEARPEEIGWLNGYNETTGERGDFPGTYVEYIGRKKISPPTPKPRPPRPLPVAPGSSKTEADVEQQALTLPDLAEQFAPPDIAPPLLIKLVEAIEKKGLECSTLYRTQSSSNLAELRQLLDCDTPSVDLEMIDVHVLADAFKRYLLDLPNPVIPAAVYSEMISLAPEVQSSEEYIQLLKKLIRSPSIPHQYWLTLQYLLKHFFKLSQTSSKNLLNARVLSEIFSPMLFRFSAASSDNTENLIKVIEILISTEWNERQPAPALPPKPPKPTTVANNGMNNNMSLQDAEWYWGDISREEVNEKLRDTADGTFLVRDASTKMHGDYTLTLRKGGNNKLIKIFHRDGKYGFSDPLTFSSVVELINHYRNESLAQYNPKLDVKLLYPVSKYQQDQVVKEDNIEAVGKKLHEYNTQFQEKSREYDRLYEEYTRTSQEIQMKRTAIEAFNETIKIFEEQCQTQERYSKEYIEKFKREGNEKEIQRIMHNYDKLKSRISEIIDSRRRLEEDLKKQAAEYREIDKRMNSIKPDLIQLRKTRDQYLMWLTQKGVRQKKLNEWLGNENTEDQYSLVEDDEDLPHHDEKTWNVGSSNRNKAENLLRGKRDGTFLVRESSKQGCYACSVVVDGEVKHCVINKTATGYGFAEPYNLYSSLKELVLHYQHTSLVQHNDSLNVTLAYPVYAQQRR
In simple prose, pIC50 is minus the logarithm base ten of a concentration in moles per litre.

The measured pIC50 associated with OCc1cccc(-c2nc(N3CCOCC3)c3sccc3n2)c1 [MTPPM, reference compound] reads 8.01

The measured pIC50 associated with Oc1cccc(-c2nc(N3CCOCC3)c3sccc3n2)c1 [MTPP, reference compound] reads 8.20

The measured pIC50 associated with `CC(=O)Oc1cccc(-c2nc(N3CCOCC3)c3sccc3n2)c1` reads 7.31

The measured pIC50 associated with `CC(=O)OCc1cccc(-c2nc(N3CCOCC3)c3sccc3n2)c1` reads 5.37

----------
So I've got a bunch of compounds here, and I need their IC50 values.
molecular target: PI3Kb (p110b/p85a) (Homo sapiens); test: Lipid kinase inhibitory activity, ADP-Glo; conditions: β
Sequence (P42338 whole entry, one chain of several): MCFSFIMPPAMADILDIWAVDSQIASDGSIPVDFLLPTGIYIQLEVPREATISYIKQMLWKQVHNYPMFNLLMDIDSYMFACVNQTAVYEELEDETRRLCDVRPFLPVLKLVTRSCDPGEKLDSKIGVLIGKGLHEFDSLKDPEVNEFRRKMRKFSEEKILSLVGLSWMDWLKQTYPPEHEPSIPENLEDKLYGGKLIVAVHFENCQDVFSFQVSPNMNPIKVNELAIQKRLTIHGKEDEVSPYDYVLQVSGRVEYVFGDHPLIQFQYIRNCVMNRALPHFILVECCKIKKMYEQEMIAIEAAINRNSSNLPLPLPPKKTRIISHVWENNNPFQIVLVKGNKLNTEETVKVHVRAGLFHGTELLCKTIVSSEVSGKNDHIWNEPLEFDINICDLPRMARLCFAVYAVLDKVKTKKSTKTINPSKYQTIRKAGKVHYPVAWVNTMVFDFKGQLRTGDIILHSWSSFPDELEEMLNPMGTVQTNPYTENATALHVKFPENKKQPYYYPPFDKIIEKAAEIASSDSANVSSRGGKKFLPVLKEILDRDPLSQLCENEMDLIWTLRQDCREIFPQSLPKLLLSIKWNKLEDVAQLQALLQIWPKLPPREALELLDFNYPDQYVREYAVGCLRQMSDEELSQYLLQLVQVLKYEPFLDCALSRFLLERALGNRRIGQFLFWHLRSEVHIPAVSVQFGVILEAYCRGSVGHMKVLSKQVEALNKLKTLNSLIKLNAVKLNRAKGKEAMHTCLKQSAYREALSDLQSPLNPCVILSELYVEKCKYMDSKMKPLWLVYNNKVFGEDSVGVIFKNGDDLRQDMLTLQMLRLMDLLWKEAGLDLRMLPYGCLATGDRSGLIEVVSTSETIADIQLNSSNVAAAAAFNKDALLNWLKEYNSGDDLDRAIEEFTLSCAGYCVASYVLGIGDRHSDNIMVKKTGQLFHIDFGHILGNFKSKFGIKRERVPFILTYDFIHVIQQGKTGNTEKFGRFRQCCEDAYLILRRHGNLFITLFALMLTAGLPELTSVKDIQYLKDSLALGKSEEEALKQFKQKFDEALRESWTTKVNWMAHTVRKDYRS
Number in nM, nothing else.

Item OCc1cccc(-c2nc(N3CCOCC3)c3sccc3n2)c1 [MTPPM, reference compound] was tested on PI3Kb (p110b/p85a) (Homo sapiens); the reported IC50 is 56

Item `CC(=O)OCc1cccc(-c2nc(N3CCOCC3)c3sccc3n2)c1` was tested on PI3Kb (p110b/p85a) (Homo sapiens); the reported IC50 is 5590

Item Oc1cccc(-c2nc(N3CCOCC3)c3sccc3n2)c1 [MTPP, reference compound] was tested on PI3Kb (p110b/p85a) (Homo sapiens); the reported IC50 is 38

Item `CC(=O)Oc1cccc(-c2nc(N3CCOCC3)c3sccc3n2)c1` was tested on PI3Kb (p110b/p85a) (Homo sapiens); the reported IC50 is 257

----------
biological target: PI3Kd (p110d/p85a) (Homo sapiens, UniProt O00329); test: Lipid kinase inhibitory activity, ADP-Glo; details: δ
Sequence (O00329 whole entry, one chain of several): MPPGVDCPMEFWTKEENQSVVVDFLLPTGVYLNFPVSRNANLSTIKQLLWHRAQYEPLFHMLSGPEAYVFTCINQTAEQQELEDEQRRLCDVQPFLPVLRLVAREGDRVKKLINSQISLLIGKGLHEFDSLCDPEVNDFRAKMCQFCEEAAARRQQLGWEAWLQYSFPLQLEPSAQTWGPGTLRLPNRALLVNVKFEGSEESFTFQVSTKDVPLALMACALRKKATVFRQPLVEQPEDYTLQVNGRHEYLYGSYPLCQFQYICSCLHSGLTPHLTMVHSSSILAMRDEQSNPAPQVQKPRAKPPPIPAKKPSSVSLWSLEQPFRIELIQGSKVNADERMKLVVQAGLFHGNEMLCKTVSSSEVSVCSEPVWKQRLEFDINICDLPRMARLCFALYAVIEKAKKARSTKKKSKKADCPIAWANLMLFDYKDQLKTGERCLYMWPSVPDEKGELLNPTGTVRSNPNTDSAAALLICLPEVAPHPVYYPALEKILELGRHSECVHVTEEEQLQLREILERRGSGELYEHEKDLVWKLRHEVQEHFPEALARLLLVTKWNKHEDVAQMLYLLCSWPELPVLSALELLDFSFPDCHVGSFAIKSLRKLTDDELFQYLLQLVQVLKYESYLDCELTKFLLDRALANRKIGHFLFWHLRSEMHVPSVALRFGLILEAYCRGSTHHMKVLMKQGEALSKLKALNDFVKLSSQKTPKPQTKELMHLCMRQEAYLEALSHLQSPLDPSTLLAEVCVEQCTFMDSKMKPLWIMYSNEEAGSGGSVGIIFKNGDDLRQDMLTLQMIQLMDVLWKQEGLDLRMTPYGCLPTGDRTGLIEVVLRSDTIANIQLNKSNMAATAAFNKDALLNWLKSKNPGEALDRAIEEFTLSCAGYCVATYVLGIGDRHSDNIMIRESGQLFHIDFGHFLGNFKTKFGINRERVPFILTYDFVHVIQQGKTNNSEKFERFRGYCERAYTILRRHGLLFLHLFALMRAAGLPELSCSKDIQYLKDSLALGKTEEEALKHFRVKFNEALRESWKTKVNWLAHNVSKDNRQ
measuredAttribute: pIC50
In simple prose, pIC50 is minus the logarithm base ten of a concentration in moles per litre.

The measured pIC50 associated with `CC(=O)Oc1cccc(-c2nc(N3CCOCC3)c3sccc3n2)c1` reads 7.08

The measured pIC50 associated with `CC(=O)OCc1cccc(-c2nc(N3CCOCC3)c3sccc3n2)c1` reads 6.15

The measured pIC50 associated with Oc1cccc(-c2nc(N3CCOCC3)c3sccc3n2)c1 [MTPP, reference compound] reads 7.72

The measured pIC50 associated with OCc1cccc(-c2nc(N3CCOCC3)c3sccc3n2)c1 [MTPPM, reference compound] reads 7.77

----------
Molecular target: MTOR/FRAP1 (Homo sapiens)
Assay: Lipid kinase inhibitory activity, ADP-Glo
Method: Lipid kinases: Lipid kinases from Reaction Biology Corporation (RBC) in ADP-Glo format were used. Assay Description: The kinase reactions utilized ATP and produced ADP as a byproduct. The ADP production was quantified by ADP-Glo luminescence detection. This assay was a 3-step reaction. […] Assay Procedure: The assay was performed according to the steps as follows: • 1. […] Measuring luminescence. Data Analysis: The luminescence was converted into μM ADP production based on ADP standard curves. […]
measuredAttribute: pIC50
In simple prose, pIC50 is minus the logarithm base ten of a concentration in moles per litre.

The measured pIC50 associated with `CC(=O)OCc1cccc(-c2nc(N3CCOCC3)c3sccc3n2)c1` reads 5.48

The measured pIC50 associated with OCc1cccc(-c2nc(N3CCOCC3)c3sccc3n2)c1 [MTPPM, reference compound] reads 6.95

The measured pIC50 associated with Oc1cccc(-c2nc(N3CCOCC3)c3sccc3n2)c1 [MTPP, reference compound] reads 6.66

The measured pIC50 associated with `CC(=O)Oc1cccc(-c2nc(N3CCOCC3)c3sccc3n2)c1` reads 5.85
